# measurement.description: in vitro
# condition.set: African green monkey
Lab note: anything with IC50 below 8 µg/mL is marked fulfilled; values at 8 µg/mL or higher are marked not fulfilled.

Illustrative cases are given below, each with its answer.
COc1c(O)cc2cc1C[C@@H](C)C[C@H](OC)[C@H](O)[C@@H](C)/C=C(\C)[C@H](OC(N)=O)[C@@H](OC)CC/C=C(\C)C(=O)N2 [(3), reblastatin]    fulfilled
COC1=C2C[C@@H](C)C[C@H](OC)[C@H](O)[C@@H](C)/C=C(\C)[C@H](OC(N)=O)[C@@H](OC)/C=C\C=C(/C)C(=O)NC(=CC1=O)C2=O [(1), geldanamycin]    fulfilled
Cc1c2ccncc2c(C)c2c1[nH]c1ccccc12 [Ellipticine, reference compound]    fulfilled
O=C1CCC(=O)N(O)CCCCCNC(=O)CCC(=O)N(O)CCCCCNC(=O)CCC(=O)N(O)CCCCCN1 [(5), nocardamine]    not fulfilled
CO[C@H]1/C=C\C=C(/C)C(=O)NC2=CC(=O)C(O)=C(C[C@@H](C)C[C@H](OC)[C@H](O)[C@@H](C)/C=C(\C)[C@@H]1OC(N)=O)C2=O [(2), 17-O-demethylgeldanamycin]    fulfilled

Continue with the compound presented below.
Field: below-cutoff. Rule: recorded IC50 strictly less than 8 µg/mL. Subject: CO[C@H]1C[C@H](C)Cc2cc(O)cc(c2)NC(=O)/C(C)=C/CC[C@H](OC)[C@@H](OC(N)=O)/C(C)=C/[C@H](C)[C@H]1O [(4), 17-demethoxyreblastatin] not fulfilled

Where these numbers come from: paper PMC10525797
